Tested on: NCI-H23
testSummary: NCI tumour cell line growth inhibition, 48 h
Calls of active or inactive are those of the source. Rule as the data show it: active = GI50 up to about 1.1 µM and inactive = higher.
// one of active, inactive, no free text

Name the outcome recorded for COc1ccc(C#CC(=O)O)c(OC)c1 in the assay.
inactive

Now consider CCOC(=O)c1ccc(/N=N/c2cc(C(=O)OCC)ccc2O)cc1 .
inactive

Next compound: CN(c1c(Cl)cccc1Cl)S(=O)(=O)c1ccccc1[N+](=O)[O-]
inactive

Repeat for the following compound: Oc1ccc(C(c2ccc(O)cc2)c2ccc(O)cc2)cc1
inactive

Please do the same for COc1ccc(OC)c2c1C=CC(Br)=CC2 as well.
active

Thanks! And C#CCN(N=O)C(=O)NC(CCCNC(=O)OCc1ccccc1)C(=O)OCc1ccccc1 (stereo not drawn) ?
inactive

Please give the result for CC(C)CC(NC(=O)OC(C)(C)C)C(=O)Nc1ccc(Nc2nc(F)nc(-c3c4ccccc4c4n3CCS4)n2)cc1 (stereo not drawn) too.
inactive

Entry to check: COC1CCCc2c(OC(C)=O)ccc(OC(C)=O)c21 (stereo not drawn)
inactive

Queued: CC(C)C1NC(=O)[C@H](C)OC(=O)[C@@H](C(C)C)NC(=O)[C@@H](C)OC(=O)C(C(C)C)NC(=O)[C@H](C)OC1=O (stereo partly drawn)
inactive

Similarly, C/C(CC(O)(C(F)(F)F)C(F)(F)F)=N\N ?
inactive

Try this compound next: N=C(N)NS(=O)(=O)c1ccc(NC(=O)c2cccn3c(=O)c4ccccc4nc23)cc1
inactive

Request: CC1(C)OC2COC3(CNO)OC(C)(C)OC3C2O1 (stereo not drawn)
inactive

How about CCCCOP(=O)(OCCCC)/C(C#N)=C/c1ccco1 ?
inactive

Same lookup for CNc1ncnc2c1ncn2C1C=CC(COS(N)(=O)=O)C1 (stereo not drawn) , please.
inactive

# repeat for COc1cc(OC)c2nc3occc3c(OC)c2c1
inactive

What would you report for O=C(CCc1ccc(O)cc1)NCCc1ccc(O)cc1 ?
inactive

Try this compound next: NC(=O)CCSC(CC(=O)c1ccc(Cl)cc1)c1ccc(Cl)cc1 (stereo not drawn)
inactive

Next record, please: O=C(/C=C/c1ccc(O)c(O)c1)OCCCc1ccccc1
inactive

Also O=C1C2C3C=CC(C2C(=O)N1COP(=O)(O)O)C1C2C(=O)N(COP(=O)(O)O)C(=O)C2C31 (stereo not drawn) , if possible.
inactive

Continue with O=C(O)CCSC(=O)Nc1cccc([N+](=O)[O-])c1
inactive

And COc1ncc(C=C(C#N)C#N)c(OC)n1 ?
inactive

Entry COc1ccc(CC2c3c(cc(OC)c(OC)c3OC)CCN2C)cc1OC (stereo not drawn) please
inactive

Cool, now CCN1CCN=c2c3cc(OC)ccc3n3cnc4ccc1c2c43
active

* * *

Tested on: K562
testSummary: NCI tumour cell line growth inhibition, 48 h
Active and inactive are the calls of the source. No stated cut-off is given here; in the data, active = GI50 up to about 1.1 µM and inactive = higher.
Select the matching outcome among active, inactive

Tell me the assay call for CCN(CC)CCn1ncc2ccc3c(c(=O)c4cccnc4n3CCN(CC)CC)c21 please.
active

// query: CCN1/C(=C/c2ccc3ccccc3[n+]2CC)C=Cc2ccccc21
active

And then COc1cc2ccnc3c(=C(SC)SC)c(=O)c(c1OC)c23 , what is it?
inactive

Then what about the compound COc1cc([C@@H]2c3cc4c(cc3[C@@H](NCc3ccccc3F)C3COC(=O)[C@@H]32)OCO4)cc(OC)c1O (stereo partly specified) ?
inactive

Query CC(Br)CN1CCOCC1 (stereo unspecified) next
inactive

Same again, this time with O=P(O)(O)CCP(=O)(O)O
inactive

One more compound: COc1cc(/C=C2/SC(c3ccccc3)N(Cc3ccccc3)C2=O)cc(OC)c1OC (stereo unspecified)
inactive

# repeat for CCCCCCCCCCCCOC(=S)NC
inactive

Cool, now O=C(O)CCSC(=O)Nc1cccc([N+](=O)[O-])c1
inactive

Now consider COc1cc(-c2cc(=O)c3cc(C)c(C)c(C(=O)O)c3o2)cc(OC)c1OC .
inactive

Now the compound Cc1cc(C)c2c(c1)C(=O)/C(=C/c1ccccc1C(=O)O)C2
inactive
